# assay_protocol: Effective concentration against NR1/NR2D receptor
pEC50: −log10 of the molar value.
measurement_label: pEC50

- NCC(=O)O: 7.02
- N[C@H](CO)C(=O)O: 6.77

A. N[C@H](CCCP(=O)(O)O)C(=O)O
B. N[C@@H](CCC(=O)O)C(=O)O
C. O=C(O)[C@H]1CN(C/C=C/P(=O)(O)O)CCN1
# input Rank descending by pEC50. Output spec: labels arranged per the requested ranking.
# output B, C, A

###

# assayed_target: Metabotropic glutamate receptor 1 (Homo sapiens, UniProt Q13255)
# Sequence (Q13255 whole entry): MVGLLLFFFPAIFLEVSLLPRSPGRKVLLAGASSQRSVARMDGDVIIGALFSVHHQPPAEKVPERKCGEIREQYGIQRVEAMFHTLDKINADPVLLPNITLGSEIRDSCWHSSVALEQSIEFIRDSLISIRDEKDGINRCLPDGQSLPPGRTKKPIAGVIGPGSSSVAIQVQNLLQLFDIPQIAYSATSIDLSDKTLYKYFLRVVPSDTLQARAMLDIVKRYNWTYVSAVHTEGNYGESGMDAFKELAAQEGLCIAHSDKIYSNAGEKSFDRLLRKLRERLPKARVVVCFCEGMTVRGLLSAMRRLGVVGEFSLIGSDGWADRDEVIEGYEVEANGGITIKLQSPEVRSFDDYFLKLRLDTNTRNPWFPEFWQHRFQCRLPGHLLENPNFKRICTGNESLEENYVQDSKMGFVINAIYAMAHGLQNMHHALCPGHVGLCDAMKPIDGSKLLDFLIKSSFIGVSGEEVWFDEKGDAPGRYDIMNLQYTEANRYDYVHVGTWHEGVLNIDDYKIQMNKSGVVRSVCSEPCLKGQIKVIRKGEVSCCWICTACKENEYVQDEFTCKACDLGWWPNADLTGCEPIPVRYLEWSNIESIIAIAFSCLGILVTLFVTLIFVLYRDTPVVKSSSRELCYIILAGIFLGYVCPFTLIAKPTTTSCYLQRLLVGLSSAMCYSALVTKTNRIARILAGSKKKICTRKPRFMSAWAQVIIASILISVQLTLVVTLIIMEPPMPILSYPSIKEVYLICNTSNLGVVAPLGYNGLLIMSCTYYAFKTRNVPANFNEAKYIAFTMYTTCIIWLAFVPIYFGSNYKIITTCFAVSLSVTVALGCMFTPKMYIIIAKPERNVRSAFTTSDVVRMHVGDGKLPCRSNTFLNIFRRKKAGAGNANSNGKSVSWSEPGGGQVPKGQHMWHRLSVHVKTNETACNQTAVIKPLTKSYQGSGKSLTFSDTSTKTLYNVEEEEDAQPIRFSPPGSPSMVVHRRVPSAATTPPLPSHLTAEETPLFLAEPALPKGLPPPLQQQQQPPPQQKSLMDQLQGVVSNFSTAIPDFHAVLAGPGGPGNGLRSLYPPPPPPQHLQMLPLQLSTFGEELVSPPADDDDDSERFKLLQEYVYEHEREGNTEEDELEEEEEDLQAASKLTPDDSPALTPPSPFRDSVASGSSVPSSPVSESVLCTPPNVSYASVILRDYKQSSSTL
# assay_protocol: Agonist potency against cloned human metabotropic glutamate receptor 1
measurement_label: Ki (µM)

Field: example entries. Status: answers known.
* NC(C(=O)O)c1cc(=O)[nH]o1 (stereo not given) | 43
* Cc1cc(C(=O)O)ccc1C(N)C(=O)O (single isomer, unassigned; (+)) | 8.8

P. N[C@@H](CCn1oc(=O)[nH]c1=O)C(=O)O
Q. N[C@@]1(C(=O)O)CC2CC1[C@H]2C(=O)O (stereo not given in full)
# input # argmax over Ki for candidates P and Q Choose, then provide that item's label.
# output P
(P: 184 µM, Q: 1.6 µM)

a. NC(CC1c2ccccc2Sc2ccccc21)(C(=O)O)c1ccc(C(=O)O)cc1 (stereo not given)
b. NC1(C(=O)O)CCc2cc(C(=O)O)ccc21 (stereo not given)
c. CC(N)(C(=O)O)c1ccc(C(=O)O)cc1 (stereo not given)
d. NC(C(=O)O)c1cccc(O)c1 (stereo not given)
# input Please list these compounds in decreasing order of Ki. Respond with an ordered listing of the labels, as requested.
# output d, c, b, a
(d: 1000 µM, c: 540 µM, b: 214 µM, a: 5.7 µM)
